Target: GST-ANAC092(1-176) (Arabidopsis thaliana, UniProt Q9FKA0 1-176)
Sequence: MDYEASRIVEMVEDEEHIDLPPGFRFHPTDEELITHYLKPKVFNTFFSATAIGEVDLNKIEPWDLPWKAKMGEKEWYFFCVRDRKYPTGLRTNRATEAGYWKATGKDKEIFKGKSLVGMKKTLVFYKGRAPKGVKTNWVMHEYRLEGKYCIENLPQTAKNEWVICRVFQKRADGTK
Assay: universal protein binding microarray (PBM); transcription factors of Arabidopsis thaliana; high values mean tight binding
Conditions: protein: recombinant; tags: GST; chain copies: 2; dsDNA, one strand shown
Catalogue of binding signal values
Express your answer in E-score, writing the number without its unit.

Incoming: Which binding signal is listed for CGTTTCCC ?
Outgoing: 0.244

Incoming: Which binding signal is listed for AGCGTCAA ?
Outgoing: 0.0554

Incoming: Which binding signal is listed for ACGTAACA ?
Outgoing: 0.438

Incoming: Which binding signal is listed for TGCACGCA ?
Outgoing: 0.419

Incoming: Which binding signal is listed for ACAAGTTA ?
Outgoing: 0.362

Incoming: Which binding signal is listed for ACGTAAGT ?
Outgoing: 0.357

Incoming: Which binding signal is listed for CACGGCAG ?
Outgoing: 0.39

Incoming: Which binding signal is listed for CTTTCTTC ?
Outgoing: 0.137

Incoming: Which binding signal is listed for ATTACGTG ?
Outgoing: 0.457

Incoming: Which binding signal is listed for GCACGGTA ?
Outgoing: 0.375

Incoming: Which binding signal is listed for CTCACGCA ?
Outgoing: 0.416
